# Target Under Test: T1, EsCas13d, nuclease-dead (Eubacterium siraeum, UniProt B0MS50, R295A;H300A;R849A;H854A)
# T1 sequence: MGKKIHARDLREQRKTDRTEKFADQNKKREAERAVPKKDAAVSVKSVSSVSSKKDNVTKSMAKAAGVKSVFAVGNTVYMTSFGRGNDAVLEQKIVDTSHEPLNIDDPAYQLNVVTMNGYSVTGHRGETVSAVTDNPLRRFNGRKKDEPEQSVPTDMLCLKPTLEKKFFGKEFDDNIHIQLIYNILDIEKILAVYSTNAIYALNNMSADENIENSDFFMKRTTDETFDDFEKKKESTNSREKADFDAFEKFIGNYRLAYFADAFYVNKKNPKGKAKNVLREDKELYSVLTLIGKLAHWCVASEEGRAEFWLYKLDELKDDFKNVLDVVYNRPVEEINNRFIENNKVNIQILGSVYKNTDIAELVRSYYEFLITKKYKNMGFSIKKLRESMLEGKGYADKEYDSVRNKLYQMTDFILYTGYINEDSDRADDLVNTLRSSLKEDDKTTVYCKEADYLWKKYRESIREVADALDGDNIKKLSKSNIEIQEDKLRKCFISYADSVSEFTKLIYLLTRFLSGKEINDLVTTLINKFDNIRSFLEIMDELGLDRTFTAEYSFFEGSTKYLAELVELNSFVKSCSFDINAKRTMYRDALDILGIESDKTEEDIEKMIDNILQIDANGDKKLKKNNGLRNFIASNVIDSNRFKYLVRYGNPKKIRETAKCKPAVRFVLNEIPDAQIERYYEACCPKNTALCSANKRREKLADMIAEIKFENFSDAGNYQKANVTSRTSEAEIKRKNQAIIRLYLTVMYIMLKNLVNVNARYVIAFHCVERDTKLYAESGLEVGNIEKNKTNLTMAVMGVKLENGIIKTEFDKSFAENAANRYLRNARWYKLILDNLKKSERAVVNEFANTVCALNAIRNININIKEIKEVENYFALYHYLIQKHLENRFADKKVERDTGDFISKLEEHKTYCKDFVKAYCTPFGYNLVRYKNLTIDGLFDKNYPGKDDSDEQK
# Procedure Summary: crRNA (strand 1, pre-loaded); Mg2+; 40 mM Tris-HCl pH 7.5, 150 mM NaCl, 6 mM MgCl2, 1 mM DTT, 0.1% Tween-20, 0.2 mg/ml BSA; 25 C; 10 min per concentration, then washed
# Condition Notes: tags: His6-TwinStrep-SUMO cleaved; N-terminal SNAP kept (SNAP-Surface 488); label: 3' end held by stalled T7 RNA polymerase
log10 Kd by entry:
Scale type: logarithmic (base 10). Underlying Kd unit: nM.

target 2 MT 5'PFS UGG 3'PFS CGA (mixed) RNA 1: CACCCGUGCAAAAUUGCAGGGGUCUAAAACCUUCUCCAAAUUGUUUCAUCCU RNA 2: GGGAAUGGAUCCACAUCUACGAAUUCUGGAGGAUGAAACAAUUUGGAGAAGCGAAGAUCGGAAGAGCACACGU	0.73
target 1 insA 3' of 7,insU 3' of 1 (mixed) RNA 1: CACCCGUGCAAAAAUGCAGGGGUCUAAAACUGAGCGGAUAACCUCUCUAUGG RNA 2: GGGAAUGGAUCCACAUCUACGAAUUCGUACCAUAGAGAGGUUAUCACGCUCAUCCGAGAUCGGAAGAGCACACGU	0.89
target 3 insU 3' of 11,insC 3' of 5 (mixed) RNA 1: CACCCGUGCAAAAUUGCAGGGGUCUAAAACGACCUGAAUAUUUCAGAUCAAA RNA 2: GGGAAUGGAUCCACAUCUACGAAUUCGUUUUUGAUCUGAAAUUAUUCACGGUCUGCAGAUCGGAAGAGCACACGU	1.91

[Q] # log10 Kd lookup, item target 2 MT 5'PFS AUG 3'PFS ACC (mixed) RNA 1: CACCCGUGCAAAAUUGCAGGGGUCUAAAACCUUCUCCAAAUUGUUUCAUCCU RNA 2: GGGAAUGGAUCCACAUCUACGAAUUCAUGAGGAUGAAACAAUUUGGAGAAGACCAGAUCGGAAGAGCACACGU
[A] 1.27

[Q] Requested read-out: log10 Kd. Entry: target 1 C6U,G15A (mixed) RNA 1: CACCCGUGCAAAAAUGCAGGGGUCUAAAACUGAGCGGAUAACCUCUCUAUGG RNA 2: GGGAAUGGAUCCACAUCUACGAAUUCGUACCAUAGAAAGGUUAUCUGCUCACCGAGAUCGGAAGAGCACACGU
[A] 1.08

[Q] State the recorded log10 Kd for this entry: target 1 insC 3' of 12,insA 3' of 8 (mixed) RNA 1: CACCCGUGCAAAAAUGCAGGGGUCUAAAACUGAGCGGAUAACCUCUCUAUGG RNA 2: GGGAAUGGAUCCACAUCUACGAAUUCGUACCAUAGAGAGGCUUAUACCGCUCACCGAGAUCGGAAGAGCACACGU
[A] 1.08

[Q] Entry target 3 G3C,A5U (mixed) RNA 1: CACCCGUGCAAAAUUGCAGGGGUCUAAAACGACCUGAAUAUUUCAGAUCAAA RNA 2: GGGAAUGGAUCCACAUCUACGAAUUCGUUUUUGAUCUGAAAUAUUCUGCUCUGCAGAUCGGAAGAGCACACGU : reported log10 Kd = ?
[A] 1.40
